Below, each entry is listed with its recorded Binding of CRJB to looped/cyclic peptide (PEPSCAN-ELISA signal).
# System: human monoclonal antibody CRJB
# Format: binding

Solved cases (8 shown):
VHNQVSGVDLGLPNW; 106
DPSTVFKDGDEAEDF; 110
VHPLADPSTVFKDGD; 79
HNQVSGVDLGLPNWG; 100
LADPSTVFKDGDEAE; 90
DEAEDFVEVHLPDVH; 104
HLPDVHNQVSGVDLG; 93
DGDEAEDFVEVHLPD; 102

input: State, in one line, measured Binding of CRJB to looped/cyclic peptide (PEPSCAN-ELISA signal) of EDFVEVHLPDVHNQV
output: 89

input: Determine its reported Binding of CRJB to looped/cyclic peptide (PEPSCAN-ELISA signal): TVFKDGDEAEDFVEV
output: 90

input: Given the sequence VHLPDVHNQVSGVDL , write its reported Binding of CRJB to looped/cyclic peptide (PEPSCAN-ELISA signal).
output: 94

* * *

# System: human monoclonal antibody CR57
# Format: binding
Attribute Measured: Binding of CR57 to linear peptide (PEPSCAN-ELISA signal)
No unit in the answer, please; the number alone is enough.

Completed entries (count: 4):
YPDYRWLRTVKTTKE; 72
SKGSETCGFVDERGL; 92
FGKAYTIFNKTLMEA; 90
NGFTCTGVVTEAENY; 69

input: Name the recorded Binding of CR57 to linear peptide (PEPSCAN-ELISA signal) of KRASKGSETCGFVDE , assay system human monoclonal antibody CR57.
output: 92

* * *

# Tested on: human monoclonal antibody CR57
# Type: binding
Mark each entry satisfied if its Binding of CR57 to linear peptide (PEPSCAN-ELISA signal) sits below 80, and not satisfied for all others.

Some solved entries appear below for comparison.
FTNSRGKRASKGSET; not satisfied
RAAYNWKMAGDPRYE; not satisfied
ELKVGYILAIKMNGF; not satisfied
IMTTKSVSFRRLSHL; satisfied
IEHLVVEELVRKREE; not satisfied
DLDPYDRSLHSRVFP; not satisfied
LHDFRSDEIEHLVVE; not satisfied
GPWSPIDIHHLSCPN; satisfied

input: Record CLRVGGRCHPHVNGV : is its Binding of CR57 to linear peptide (PEPSCAN-ELISA signal) strictly below 80?
output: not satisfied

input: Hello, I'm reviewing records and need to know if Binding of CR57 to linear peptide (PEPSCAN-ELISA signal) of VIPLVHPLADPSTVF is below 80. Could you check?
output: satisfied

input: Is Binding of CR57 to linear peptide (PEPSCAN-ELISA signal) strictly under 80 for the entry NLVVEDEGCTNLSGF ?
output: satisfied

input: For this sequence, is Binding of CR57 to linear peptide (PEPSCAN-ELISA signal) lower than 80? GCLRVGGRCHPHVNG
output: not satisfied

input: For this sequence, is Binding of CR57 to linear peptide (PEPSCAN-ELISA signal) lower than 80? HHLSCPNNLVVEDEG
output: satisfied

input: Binding of CR57 to linear peptide (PEPSCAN-ELISA signal) under 80? Item: RVGGRCHPHVNGVFF
output: not satisfied

input: Decide: Binding of CR57 to linear peptide (PEPSCAN-ELISA signal) of RGKRASKGSETCGFV strictly below 80?
output: satisfied

input: Is it true that Binding of CR57 to linear peptide (PEPSCAN-ELISA signal) reported for LSGFSYMELKVGYIL is less than 80?
output: satisfied

input: Strictly below 80: is that where Binding of CR57 to linear peptide (PEPSCAN-ELISA signal) of DGTWVAMQTSNETKW sits?
output: satisfied

input: API: query returns whether the sequence falls strictly under 80 in Binding of CR57 to linear peptide (PEPSCAN-ELISA signal). Query: PWSPIDIHHLSCPNN
output: satisfied

input: Binding of CR57 to linear peptide (PEPSCAN-ELISA signal) strictly < 80 for this sequence? PYDRSLHSRVFPSGK
output: not satisfied

input: # strict comparison: is reported Binding of CR57 to linear peptide (PEPSCAN-ELISA signal) < 80? input = LCGVLGLRLMDGTWV
output: not satisfied

* * *

# Tested on: human monoclonal antibody CR57
# Format: binding
hey, just use criterion met if measured Binding of CR57 (10 μg/ml) to looped/cyclic peptide (PEPSCAN-ELISA) is less than 100, otherwise criterion not met

See these solved cases before continuing.
CGFVDERGLYKSLKG; criterion met
VGGRCHPHVNGVFFN; criterion not met
DGNVLIPEMQSSLLQ; criterion not met
ACKLKLCGVLGLRLM; criterion not met

Field: next sequence
input: # TODO verify Binding of CR57 (10 μg/ml) to looped/cyclic peptide (PEPSCAN-ELISA) < 100 strictly for this sequence: DEIEHLVVEELVRKR
output: criterion not met

* * *

# Test system: human monoclonal antibody CRJB
# Format: binding
Listing of entries alongside the reported Binding of CRJB to linear peptide (PEPSCAN-ELISA signal).
Form rule: numeric answer, no unit written next to it.

Field: example entries. Status: answers known.
VAVSSTYCSTNHDYT; 114
VSSTYCSTNHDYTIW; 107
KRASKGSETCGFVDE; 106

input: Retrieve Binding of CRJB to linear peptide (PEPSCAN-ELISA signal) measured for ESLVIISPSVADLDP and print it.
output: 125

input: Output Binding of CRJB to linear peptide (PEPSCAN-ELISA signal) of ELKVGYILAIKMNGF
output: 132

input: Please give the documented Binding of CRJB to linear peptide (PEPSCAN-ELISA signal) of LIPEMQSSLLQQHME
output: 111

input: Please list Binding of CRJB to linear peptide (PEPSCAN-ELISA signal) recorded for the sequence ILGPDGNVLIPEMQS
output: 134

* * *

# System: human monoclonal antibody CRJA
# Type: binding
Attribute Measured: Binding of CRJA to linear peptide (PEPSCAN-ELISA signal)
Lab note: jot the number down without any unit.

Some entries whose results are on file:
DPYDRSLHSRVFPSG; 92
ESIMTTKSVSFRRLS; 61

Let us examine a further case.
input: Complete the entry with Binding of CRJA to linear peptide (PEPSCAN-ELISA signal) for HDFRSDEIEHLVVEE
output: 78

* * *

# System: human monoclonal antibody CRJA
# Assay type: binding
A collection of sequences and their measured Binding of CRJA to linear peptide (PEPSCAN-ELISA signal)

Worked cases, answers included:
ELKVGYILAIKMNGF; 84
CRAAYNWKMAGDPRY; 113
SLHSRVFPSGKCSGV; 96
SETCGFVDERGLYKS; 71

input: Tell me Binding of CRJA to linear peptide (PEPSCAN-ELISA signal) reported for KTLMEADAHYKSVRT
output: 102

* * *

# Test system: human monoclonal antibody CRJB
# Type: binding
Attribute Measured: Binding of CRJB to linear peptide (PEPSCAN-ELISA signal)
Respond numerically, and do not add a unit to the figure.

Some solved cases for reference:
TIWMPENPRLGMSCD; 106
MELLESSVIPLVHPL; 125
EDEGCTNLSGFSYME; 90
AMQTSNETKWCPPDQ; 114
RSLHSRVFPSGKCSG; 141

input: Annotate the sequence QLVNLHDFRSDEIEH with its measured Binding of CRJB to linear peptide (PEPSCAN-ELISA signal).
output: 113

input: Tell me measured Binding of CRJB to linear peptide (PEPSCAN-ELISA signal) for YTIWMPENPRLGMSC please.
output: 132

input: Tell me Binding of CRJB to linear peptide (PEPSCAN-ELISA signal) reported for MQTSNETKWCPPDQL
output: 132

input: Give reported Binding of CRJB to linear peptide (PEPSCAN-ELISA signal) value for ESSVIPLVHPLADPS
output: 138

input: Recall and state the measured Binding of CRJB to linear peptide (PEPSCAN-ELISA signal) for SLVIISPSVADLDPY .
output: 105

input: Answer with the recorded Binding of CRJB to linear peptide (PEPSCAN-ELISA signal) for the sequence listed here: HNPYPDYRWLRTVKT
output: 108

* * *

# Test system: human monoclonal antibody CR57
# Type: binding
# reported Binding of CR57 (10 μg/ml) to looped/cyclic peptide (PEPSCAN-ELISA); entries follow
Answer with a number only.

KGSETCGFVDERGLY; 111
LKGACKLKLCGVLGL; 105

Now consider the entry below.
input: Query Binding of CR57 (10 μg/ml) to looped/cyclic peptide (PEPSCAN-ELISA) for GFVDERGLYKSLKGA
output: 107

* * *

# Test system: human monoclonal antibody CRJA
# Assay type: binding
Recorded Binding of CRJA (10 μg/ml) to looped/cyclic peptide (PEPSCAN-ELISA) by entry
Form: value (number only, do not type unit).

See these solved cases before continuing.
PPDQLVNLHDFRSDE; 97
NGVFFNGIILGPDGN; 46

input: Give me measured Binding of CRJA (10 μg/ml) to looped/cyclic peptide (PEPSCAN-ELISA), please, for this sequence: EHLVVEELVRKREEC
output: 93

input: Note Binding of CRJA (10 μg/ml) to looped/cyclic peptide (PEPSCAN-ELISA) for the sequence shown: MDGTWVAMQTSNETK
output: 90

input: Given the sequence RVGGRCHPHVNGVFF , write its reported Binding of CRJA (10 μg/ml) to looped/cyclic peptide (PEPSCAN-ELISA).
output: 117

# credit: patent US20060263802A1
